The measured values listed here are drawn from ChEMBL document CHEMBL3112508.

TESTED ON: Voltage-gated inwardly rectifying potassium channel KCNH2 (Homo sapiens)
Sequence (Q12809 whole entry): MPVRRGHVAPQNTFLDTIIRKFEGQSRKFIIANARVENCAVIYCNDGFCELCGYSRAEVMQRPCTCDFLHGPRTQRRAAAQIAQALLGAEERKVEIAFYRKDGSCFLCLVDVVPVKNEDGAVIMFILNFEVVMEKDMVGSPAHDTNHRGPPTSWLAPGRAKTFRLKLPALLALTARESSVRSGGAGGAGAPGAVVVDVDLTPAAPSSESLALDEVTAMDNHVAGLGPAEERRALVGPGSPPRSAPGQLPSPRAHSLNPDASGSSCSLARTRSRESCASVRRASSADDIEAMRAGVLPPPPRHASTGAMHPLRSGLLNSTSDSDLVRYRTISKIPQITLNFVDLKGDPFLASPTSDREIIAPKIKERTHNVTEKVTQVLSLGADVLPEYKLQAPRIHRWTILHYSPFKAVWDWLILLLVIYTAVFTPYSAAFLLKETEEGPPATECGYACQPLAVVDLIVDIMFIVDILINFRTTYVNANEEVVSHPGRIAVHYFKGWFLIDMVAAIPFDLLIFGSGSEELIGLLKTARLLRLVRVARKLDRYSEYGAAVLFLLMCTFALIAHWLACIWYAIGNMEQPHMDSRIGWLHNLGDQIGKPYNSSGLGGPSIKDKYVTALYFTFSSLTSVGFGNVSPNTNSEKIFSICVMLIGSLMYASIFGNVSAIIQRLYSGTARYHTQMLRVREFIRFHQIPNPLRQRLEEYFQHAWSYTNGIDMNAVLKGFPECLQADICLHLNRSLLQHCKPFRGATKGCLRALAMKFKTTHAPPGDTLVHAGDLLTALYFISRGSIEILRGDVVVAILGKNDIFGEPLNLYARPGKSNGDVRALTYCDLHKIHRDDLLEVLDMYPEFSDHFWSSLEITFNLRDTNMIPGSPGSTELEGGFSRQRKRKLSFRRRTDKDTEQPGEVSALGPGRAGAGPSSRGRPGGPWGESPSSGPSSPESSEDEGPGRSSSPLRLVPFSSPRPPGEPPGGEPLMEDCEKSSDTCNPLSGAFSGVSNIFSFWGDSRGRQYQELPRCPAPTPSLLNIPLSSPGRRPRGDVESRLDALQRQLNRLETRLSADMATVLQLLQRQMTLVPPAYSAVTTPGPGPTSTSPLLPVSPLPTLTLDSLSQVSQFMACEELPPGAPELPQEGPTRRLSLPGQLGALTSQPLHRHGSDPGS
ASSAY PROCEDURE: Inhibition of human ERG channel by Rb efflux assay; further: test concentration or dose not given here
EXPERIMENTAL READOUT: inhibition (INH)

- COMPOUND: "CCNc1nnc(-c2cnc(N3CCN(C4CCN(C(=O)c5ccc(Cl)nc5N)CC4)[C@@H](CC)C3)c(C(C)C)n2)o1"
  VALUE REPORTED: "8%"

Moving on to another compound below.
For the compound CCNc1nnc(-c2nc(Cl)c(N3CCN(C4CCN(C(=O)c5ccc(Cl)nc5N)CC4)[C@@H](CC)C3)nc2N)o1 , what inhibition (INH) is on record?
26%

====

Catalogue of inhibition (INH) values
TESTED ON: UniProt Q12809
ASSAY PROCEDURE: Inhibition of human ERG channel by Rb efflux assay; further: test concentration or dose not given here
Give the value, in units of %, as a plain number.

For the compound CC[C@H]1CN(c2nc(N)c(-c3nnc(N(C)C)o3)nc2Cl)CCN1C1CCN(C(=O)c2ccc(Cl)nc2N)CC1 , what inhibition (INH) is on record?
67

Query CC[C@H]1CN(c2nc(N)c(-c3nnc(NCCO)o3)nc2Cl)CCN1C1CCN(C(=O)c2ccc(Cl)nc2N)CC1 next
0

Query CCNc1nnc(-c2cnc(N3CCN(C4CCN(C(=O)c5ccc(Cl)nc5N)CC4)[C@@H](CC)C3)c(CC)n2)o1 next
4

Query CCNc1nnc(-c2cnc(N3C[C@H](CC)N(C4CCN(C(=O)c5ccc(Cl)cc5)CC4)C[C@H]3C)c(C)n2)o1 next
25

Query CCNc1nnc(-c2cnc(N3C[C@H](CC)N(C4CCN(C(=O)c5ccc(Cl)nc5N)CC4)C[C@H]3C)c(C(F)(F)F)n2)o1 next
22

Query CC[C@H]1CN(c2ncc(-c3nnc(NC)o3)nc2C)[C@H](C)CN1C1CCN(C(=O)c2ccc(Cl)cc2)CC1 next
17

Query CC[C@H]1CN(c2nc(N)c(-c3nnc(C)o3)nc2Cl)CCN1C1CCN(C(=O)c2ccc(Cl)cc2)CC1 next
85

====

TESTED ON: Voltage-gated inwardly rectifying potassium channel KCNH2 (Homo sapiens)
ASSAY PROCEDURE: Inhibition of human ERG channel by Rb efflux assay; further: test concentration or dose not given here
Catalogue of inhibition (INH) values
Include the unit after the number when you answer.

Reference set, count: 6
- COMPOUND: "CC[C@H]1CN(c2nc(N)c(-c3nnc(CO)o3)nc2Cl)CCN1C1CCN(C(=O)c2ccc(Cl)nc2N)CC1"
  inhibition (INH): "16%"
- COMPOUND: "CCNc1nnc(-c2cnc(N3CCN(C4CCN(C(=O)c5ccc(Cl)nc5N)CC4)[C@@H](CC)C3)c(C)n2)o1"
  inhibition (INH): "12%"
- COMPOUND: "CC[C@H]1CN(c2ncc(-c3nnc[nH]3)nc2C)[C@H](C)CN1C1CCN(C(=O)c2ccc(Cl)cc2)CC1"
  inhibition (INH): "4%"
- COMPOUND: "CC[C@H]1CN(c2ncc(-c3nnc(N)o3)nc2C)[C@H](C)CN1C1CCN(C(=O)c2ccc(Cl)cc2)CC1"
  inhibition (INH): "0%"
- COMPOUND: "CCNc1nnc(-c2cnc(N3CCN(C4CCN(C(=O)c5ccc(Cl)nc5N)CC4)[C@@H](CC)C3)c(Cl)n2)o1"
  inhibition (INH): "14%"
- COMPOUND: "CCNc1nnc(-c2cnc(N3C[C@H](CC)N(C4CCN(C(=O)c5ccc(Cl)cc5)CC4)C[C@H]3C)c(C(F)(F)F)n2)o1"
  inhibition (INH): "27%"

Please provide the recorded inhibition (INH) for CC[C@H]1CN(c2ncc(-c3ncc[nH]3)nc2C)[C@H](C)CN1C1CCN(C(=O)c2ccc(Cl)nc2N)CC1 , tested on Voltage-gated inwardly rectifying potassium channel KCNH2 (Homo sapiens).
22%
